Please respond with reported cell count for every item in the list.
PROTOCOL_DETAILS: viability loss with induced miR-34 in A549 – imaging, A549 dox-inducible miR-34, nuclei and caspase counts, primary screen (AID 1347080); further: test concentration not given here
CONDITION_SUMMARY: A549 miR-34 inducible, Hoechst nuclei count, 48 h; measured here: total cells without miR-34 induction

CCCC[C@@H](C)/C=C(C)/C=C(\C)C(=O)NC1=C[C@@](O)(/C=C/C=C/C=C/C(=O)NC2=C(O)CCC2=O)[C@@H]2O[C@@H]2C1=O ... 1290
Cc1cnc(NCCCn2cccn2)nc1-c1cnn(C)c1 ... 10700
Cc1cc(C(C)Nc2ccccc2C(=O)O)c2nc(N3CCOCC3)cc(=O)n2c1 (stereo not drawn) ... 6030
C=C1CC[C@H](O)C/C1=C/C=C1\CCC[C@]2(C)[C@@H]([C@H](C)CCCC(C)C)CC[C@@H]12 ... 10100

Provide cell count for all items below, preserving their order.
1. CCC(C)[C@@H](CO[C@@H](Cc1ccccc1)C(=O)N[C@@H](CCS(C)(=O)=O)C(=O)OC(C)C)NC[C@@H](N)CS (stereo partly drawn)
2. COc1ccccc1CNCCCCCCNCCCCCCCCNCCCCCCNCc1ccccc1OC
3. OCc1ccccc1OC1OC(CO)C(O)C(O)C1O (stereo not drawn)
4. CC1C[C@H]2[C@@H]3CCC4=CC(=O)C=C[C@]4(C)[C@]3(Cl)C(O)C[C@]2(C)[C@]1(OC(=O)c1ccco1)C(=O)CCl (stereo partly drawn)
5. O=C(CCc1ccncc1)NNC(=O)N1Cc2ccccc2Oc2ccc(Cl)cc21
6. C=C1C[C@@]23CC[C@H]4[C@@](C)(CCC[C@@]4(C)C(=O)OC4OC(CO)C(O)C(O)C4O)[C@@H]2CC[C@]1(OC1OC(CO)C(O)C(O)C1OC1OC(CO)C(O)C(O)C1O)C3 (stereo partly drawn)
7. Nc1ncnc2c1nc(Br)n2C1OC2COP(=O)(O)O[C@@H]2C1O (stereo partly drawn)
8. Cc1cc(Nc2cc(N3CCN(C)CC3)nc(C=Cc3ccccc3)n2)n[nH]1

**A:**
3700
7890
9900
4780
8460
10100
8780
872

Provide cell count for all items below, preserving their order.
1. CN(CC(=O)N(Cc1ccc(C2CCCCC2)cc1)c1ccc(C(=O)O)cc1)S(=O)(=O)c1c(F)c(F)c(F)c(F)c1F
2. Cc1ccc(S(=O)(=O)c2ccc([N+](=O)[O-])o2)cc1
3. CC(=O)SC1CC2=CC(=O)CC[C@]2(C)[C@@H]2CC[C@@]3(C)[C@@H](CC[C@]34CCC(=O)O4)[C@H]12 (stereo partly drawn)
4. N#CC1CCCN1C(=O)CNC12CC3CC(CC(O)(C3)C1)C2 (stereo not drawn)
5. CC(=O)c1cc([N+](=O)[O-])c(Sc2ccc(F)cc2F)s1
6. CC(C)(CO)c1cc2cc(NC(=O)C3(c4ccc5c(c4)OC(F)(F)O5)CC3)c(F)cc2n1CC(O)CO (stereo not drawn)

**A:**
4130
1180
8140
8750
9060
9220
